Could you please report measured growth for the items listed next?
- Test system: SF-268 CNS
- measurement.description: NCI-60 one-dose screen, 48 h (100 = growth as untreated, 0 = no growth, -100 = all killed)
- experimental.setup: 10 µM unless noted
This is part of a sample that, as a whole, favours compounds with a hit. Of some 83,000 tested, about 20% had one in any assay.
Give just the numeric value; % need not be written.

So, Cc1nn(-c2ccccc2)c(Cl)c1/C=C/C(=O)c1ccc(F)cc1 ? Its growth was 96.8

compound O=C(Nc1ccccc1C(=O)N/N=C(\c1ccccc1)c1ccccn1)c1ccc(F)cc1 , growth observed: 19.2

Memo: COc1ccc(C(=O)c2nc3ccccc3n2CC(=O)c2ccc(F)cc2)cc1 , reported growth: 100

What the record says about CCCCCN1C=C/C(=C\C(=O)N(C)c2ccccc2Br)c2ccccc21 : growth is 96.4

So, O=[N+]([O-])c1ccc(N=Nc2cc(S(=O)(=O)O)c3cccc(S(=O)(=O)O)c3c2O)cc1 ? Its growth was 115

Given item N#C/C(=C\c1ccc(C(F)(F)F)cc1)c1cc2ccccc2[nH]1 , the value recorded as its growth is 99.4

The compound O=C(c1nnc(Nc2ccccc2Br)o1)c1c[nH]c2ccccc12 showed growth equal to 105

Looking up Nc1c(C(=O)Nc2ccnc3ccccc23)sc2nc3c(cc12)CN(Cc1ccccc1)CC3 , I see its growth listed as 87.8

In plain terms, CCCCCCCCOc1ccc(/C=N/Nc2cc(C)nc3ccc(Br)cc23)cc1 has a documented growth of 86.3

Summary for this compound, COc1cc2oc(-c3cccc(C(=O)Nc4ccc5c(c4)OCO5)c3)cc(=O)c2c(O)c1OC : growth is 58.7

---

For each entry below, report its growth value.
- Test system: UACC-62 melanoma
- measurement.description: NCI-60 one-dose screen, 48 h (100 = growth as untreated, 0 = no growth, -100 = all killed)
- experimental.setup: 10 µM unless noted
- Description: Growth inhibition of the UACC-62 human tumor cell line is measured as a screen for anti-cancer activity. Cells are grown in 96 well plates and exposed to the test compound for 48 hours. Compounds are tested at a single concentration, which is 10^-5 M for most compounds. The reported endpoint is percent growth (GI% or GIPRCNT), where numbers from 0 - 100% represent growth inhibition, and numbers from -100% - 0 represent cell death. For example, a value of 40 represents 60% growth inhibition. […]
About 83,000 compounds went through this panel and 20% of them were active in at least one assay; those are over-represented in the sample as a whole.
Return type: number; implicit unit %.

For reference, reported growth for O=C(O)c1ccc(NCc2cn(-c3ccc(C(F)(F)F)cc3)nc2-c2ccc(C(=O)O)cc2)cc1 stands at 101

Reported growth ( O=[N+]([O-])c1ccc(NC(=S)N/N=C/c2cc3ccccc3n3nnnc23)cc1 ) = 65.4

Recorded growth (molecule NS(=O)(=O)c1ccc(CCN2C(=O)C=CC2=O)cc1 ): 104

Reported growth for CCNC(=O)Oc1ccc(/C(=C(\C)c2ccccc2)c2ccc(OCCCN(C)C)cc2)cc1 was 76.1

growth measured on NC(=NCCCOc1ccc(F)cc1)Nc1ccc(I)cc1 = 82.8

Kindly note the recorded growth for O=C(/C=C/c1ccc(F)cc1)c1ccc(NC(=O)N2CCN(c3cc4c(cc3F)c(=O)c(C(=O)O)cn4C3CC3)CC2)cc1 , which is 78.2

get_value(item= Cc1cc2c(c(C)c1Cl)C(=O)/C(=C/c1ccc(O)c(O)c1)O2 , readout=growth) returns 88.8

growth reading for COC(=O)CNC(=O)[C@]12CCC(C)(C)C[C@H]1C1=CC[C@@H]3[C@@]4(C)Cc5c([nH]c6ccccc56)C(C)(C)[C@@H]4CC[C@@]3(C)[C@]1(C)CC2 : 81.7

The recorded growth for O=C1c2cccc3c(-c4ccc5c(c4)ncn5C4CCCCC4)ccc(c23)C(=O)N1CCO is 74.4

---

- System: UACC-257 melanoma
- measurement.description: NCI-60 one-dose screen, 48 h (100 = growth as untreated, 0 = no growth, -100 = all killed)
- experimental.setup: 10 µM unless noted
Compounds without any hit were thinned out: in the full panel of roughly 83,000, 20% have a hit.
Decide by growth: equal to or exceeding 70% means Yes, less means No.

Query block: Exam item: decide whether the reported growth for NC(=NCc1ccccc1)C(N=Nc1ccccc1)C(=O)NCc1ccccc1 (configuration not stated) is at least 70%.
Result block: Yes

Query block: Please tell me: is the compound CC(C)(C)c1cc(C=O)cc(C(C)(C)C)c1O at or over 70% in terms of growth?
Result block: Yes

Query block: Tell me whether growth is at least 70% here: COc1cc(/C=N/NC(=O)c2cnn3c2NC(c2ccccc2)C3)ccc1Oc1ccccc1 (configuration not stated)
Result block: No

Query block: For this compound, is measured growth 70% or higher? C[C@@H](Nc1ncnc2ccc(-c3cnc(N)nc3)cc12)c1ccc(F)cc1
Result block: Yes

Query block: Test whether the compound C=C(C)[C@@H]1CC[C@]2(C(=O)N[C@H](CO)Cc3ccccc3)CC[C@]3(C)[C@H](CC[C@@H]4[C@@]5(C)CCCNC(C)(C)[C@@H]5CC[C@]43C)[C@@H]12 records growth of 70% or higher.
Result block: No

Query block: Textbook exercise: given the entry CCCCCCNC(=O)Nc1ccc2cc3ccc(NC(=O)NCCCCCC)cc3nc2c1 , state whether its growth is greater than or equal to 70%.
Result block: Yes

Query block: Textbook exercise: given the entry NC(=O)CSSCC(N)=O , state whether its growth is greater than or equal to 70%.
Result block: Yes

Query block: hey, is growth for this one >= 70%? CNC(=O)c1cccc(Cn2nc(C)c(NC(=O)c3ccc(COc4ccc(C(F)(F)F)cc4C)cc3)c2C)n1
Result block: No

Query block: Reported growth reaches at least 70% for COc1cccc(/C=N/NC(=O)c2cnn3c2NC(c2ccccc2)C3)c1Oc1ccccc1 (configuration not stated) ?
Result block: Yes

Query block: Does COc1cc(/C(C)=C(\c2ccc(Cl)cc2)c2ccc(OCCN(C)C)cc2)ccc1F have a reported growth of at least 70%?
Result block: No

Query block: Answer whether growth of CCOC(=O)CCN(CC(C)C)C(=S)Nc1ccccc1 is greater than or equal to 70%.
Result block: Yes

Query block: Reported growth reaches at least 70% for O=C(NCCNc1nccc(-c2c(-c3cccc(F)c3)nc3sccn23)n1)c1ccc(Cl)cc1 ?
Result block: Yes

Query block: Tell me whether growth is at least 70% here: O=C(c1nnc(Nc2ccccc2Br)o1)c1c[nH]c2ccccc12
Result block: Yes

Query block: In plain terms: is recorded growth at least 70% for COC1=CC(=O)c2ccccc2C1=O ?
Result block: No

Query block: Could you tell me if the measured growth of O=C1OC(Cc2ccccc2)C1c1ccccc1 (configuration not stated) reaches 70% or more?
Result block: Yes

Query block: Check the entry CCOC(=O)Oc1c(OC)cc(C(=O)c2ccc(OC)c(O)c2OC)cc1OC : does growth equal or exceed 70%?
Result block: No

Query block: Hello, I need to know if CC(=O)N1c2ccccc2NC2=C(C(=O)NC2(C)C)C1c1ccco1 (configuration not stated) has measured growth not below 70%. Thanks!
Result block: Yes

Query block: Is it the case that CSc1nc2sc3cccc(Cl)c3n2c(=N)c1C#N has growth reaching or exceeding 70%?
Result block: Yes

Query block: Reported growth at or above 70%? O=S(=O)(NCCCNc1nccc(-c2c(-c3cccc(O)c3)nc3occn23)n1)c1ccc(Cl)cc1
Result block: No

Query block: Record COC(=O)C(CC=O)C(=O)C(=O)Nc1cccc(C(F)(F)F)c1 (configuration not stated) ; criterion: growth no lower than 70%. Met?
Result block: No

---

- System: SNB-19 CNS
- measurement.description: NCI-60 one-dose screen, 48 h
- experimental.setup: 10 µM unless noted
About 83,000 compounds went through this panel and 20% of them were active in at least one assay; those are over-represented in the sample as a whole. The source made the active and inactive calls. Rule for the calls: active = growth percent below 10; inactive = the rest.
Mark one answer only. Choices: active, inactive

Query block: Write down the call the test reported for this compound. Item: COc1cc2nc(-c3ccc(Cl)cc3)cc(OCCCN3CCCC3)c2cc1OC
Result block: inactive

Query block: Given C=CCn1c(-c2ccc(-c3nc4ccc(C)cc4[nH]3)cc2)n[nH]c1=S , state the outcome it received in this test.
Result block: inactive

Query block: Hi team, can someone confirm the assay call for O=C(/C=C/c1ccc[nH]1)c1ccc(-n2ccc(C(F)(F)F)n2)c(F)c1 ?
Result block: inactive

Query block: Record request — test call for C=C(CBr)[C@@H]1CC[C@]2(COC(C)=O)CC[C@]3(C)[C@H](CC[C@@H]4[C@@]5(C)CCCNC(C)(C)[C@@H]5CC[C@]43C)[C@@H]12
Result block: inactive

Query block: Lab log entry: COc1cccc(-c2ccc3c(c2)NC(=O)/C3=C\c2ccc[nH]2)c1 — outcome as called in the assay?
Result block: inactive

Query block: I would be grateful if you could indicate the recorded call for CCNC(=O)Oc1ccc(/C(=C(\C)c2ccccc2)c2ccc(OCCN3CCCCC3)cc2)cc1 .
Result block: inactive

Query block: Hi, sorry to bother you, what did the test record for CCCOc1ccc(/C=N/Nc2cc(C)nc3ccc(Cl)cc23)cc1 ?
Result block: inactive

Query block: Which outcome was entered for the compound COc1ccc(-c2nc(S(=O)(=O)c3ccccc3)c(S(=O)CC(=O)N3CCC(C)CC3)o2)cc1 (stereo not drawn) in this test?
Result block: inactive

Query block: Check the results log: what was the call for N#CC1=C(N)Oc2c(cnn2-c2ccc([N+](=O)[O-])cc2[N+](=O)[O-])C1c1ccccc1 (stereo not drawn) ?
Result block: inactive

Query block: Which outcome did this test record for the compound COc1cccc(/C=N/NC(=O)c2cnn3c2NC(c2ccccc2)C3)c1Oc1ccccc1 (stereo not drawn) ?
Result block: inactive

Query block: Short answer needed: outcome of this test for O=C(CNCCN1CCOCC1)N1c2cccc3cccc(c23)N(C(=O)CNCCN2CCOCC2)C1c1cn(-c2ccccc2)nc1-c1cccc([N+](=O)[O-])c1 ?
Result block: inactive

Query block: // param item: Nc1c(C(=O)Nc2cccc3cnccc23)sc2nc3c(cc12)CN(Cc1ccccc1)CC3 ; yields the recorded call
Result block: inactive

Query block: Hi, sorry to bother you, what did the test record for Cc1ccc(C(=O)/C(=C\c2ccc([N+](=O)[O-])cc2)S(=O)Cc2ccc(Cl)cc2)cc1 (stereo not drawn) ?
Result block: inactive

Query block: Hi, do you know how COc1ccc(C(=O)Cn2c(C(=O)c3ccccc3)nc3ccccc32)cc1 came out in this test?
Result block: inactive

Query block: Fill in: this test's call for Cn1c(N2NC(=O)C(N=Nc3ccc(S(N)(=O)=O)cc3)C2=O)nc(-c2ccco2)c(C#N)c1=O (stereo not drawn) is ___
Result block: inactive

Query block: Field: outcome | Entry: O=C(NCCc1ccccc1)Nc1ccc2cc3ccc(NC(=O)NCCc4ccccc4)cc3nc2c1
Result block: active

Query block: Which outcome did this test record for the compound O=C(Cn1c[n+](CC(=O)c2ccc([N+](=O)[O-])cc2)c2ccccc21)Nc1cccc2cccnc12 ?
Result block: inactive

Query block: Could you kindly confirm the outcome this assay logged for O=C(c1nc2ccccc2[nH]1)C1C(c2ccc(Cl)cc2)C2CC3CCCC[C@H]3N2[C@@]12C(=O)Nc1cc(Cl)ccc12 (stereo partly drawn) ?
Result block: inactive
